# TEST PROTOCOL: Solubility in water at pH 10
PROPERTY LABEL: solubility
Please report the result as a number followed by the unit.

solubility in this record for COc1ccc2[nH]c([S+]([O-])Cc3nccc(N4CCOCC4)c3Cl)nc2c1 (stereo unspecified) : 15 mg/mL

###

# Tested on: Rattus norvegicus
# TEST PROTOCOL: Inhibition of histamine-stimulated gastric acid secretion in lumen perfused anesthetized rat after intraduodenal administration
# Assay type: functional
# ASSAY SETUP: Stomach
PROPERTY LABEL: ED50 (µmol/kg)
Answer in µmol/kg, number only, no unit symbol.

ED50 in this record for COc1ccc2[nH]c([S+]([O-])Cc3nccc(N(C)C)c3Cl)nc2c1 (centres undefined) : 0.38

ED50 in this record for COc1ccc2[nH]c([S+]([O-])Cc3nccc(N4CCCCC4)c3Cl)nc2c1 (centres undefined) : 7.72

ED50 in this record for COc1ccc2[nH]c([S+]([O-])Cc3cc(N(C)C)c(Br)cn3)nc2c1 (centres undefined) : 1.75

ED50 in this record for COc1ccc2[nH]c([S+]([O-])Cc3nccc(N4CCOCC4)c3Cl)nc2c1 (centres undefined) : 1.14
